# Test system: HEK-293T
# ASSAY_NOTES: Multiplex assay against HEK293T
# Type: toxicity, cell-based
# CONDITION_DETAILS: human, 12 h, 1 µM, compound concentration 1 uM, replicate 2
MEASUREMENT_KIND: Population Apoptotic (%)
Numbers only; they are read as %.

Examples with their reported Population Apoptotic (%) follow.
NC(=O)c1cccc(-c2cc(Nc3ccc(OC(F)(F)F)cc3)ncn2)c1 :: 9
CCc1cccc(CC)c1NC(=O)c1nn(C)c2c1CCc1cnc(Nc3ccc(C(=O)NC4CCN(C)CC4)cc3OC(F)(F)F)nc1-2 :: 28
Cc1cc(C)c(S(=O)(=O)N(Cc2ccc(-c3cccc(S(C)(=O)=O)c3)cc2)Cc2ccc(C(F)(F)F)o2)c(C)c1 :: 13
CNc1cc(Oc2cc(C(=O)Nc3cc(N4CCN(C)CC4)cc(C(F)(F)F)c3)ccc2C)ncn1 :: 41
C=CCn1c(=O)c2cnc(Nc3ccc(N4CCN(C)CC4)cc3)nc2n1-c1cccc(C(C)(C)O)n1 [ADAVOSERTIB] :: 13
CCOc1cc(C(=O)N2CCC(N3CCN(C)CC3)CC2)ccc1Nc1ncc2c(n1)N(C1CCCC1)c1ccccc1C(=O)N2C :: 60
CN1C2CCC1CC(OC(c1ccc(F)cc1)c1ccc(F)cc1)C2.Cl (configuration not stated) :: 18
Cc1ccc2nc(NCCN)c3ncc(C)n3c2c1.O=C(O)C(F)(F)F.O=C(O)C(F)(F)F :: 14

API: value(readout= Population Apoptotic (%), system= HEK-293T, query= CCCS(=O)(=O)Nc1ccc(F)c(C(=O)c2c[nH]c3ncc(Cl)cc23)c1F [PLX-4720] )
6

API: value(readout= Population Apoptotic (%), system= HEK-293T, query= COc1cc(N2CCN(C)CC2)ccc1Nc1ncc2c(n1)N(C)c1ccccc1C(=O)N2C )
18

API: value(readout= Population Apoptotic (%), system= HEK-293T, query= CN1CCN(C(=O)C(C)(C)c2ccc(C(=O)Nc3cn4cc(-c5cc(C(C)(C)C)cc(C(C)(C)C)c5)ccc4n3)cc2)CC1 [T3-CLK-N] )
10

API: value(readout= Population Apoptotic (%), system= HEK-293T, query= Cl.O=C(c1ccc(Nc2nccc(-c3cc4ccccc4s3)n2)cc1)N1CCC(N2CCCC2)CC1 )
12

API: value(readout= Population Apoptotic (%), system= HEK-293T, query= O=C1N/C(=N/c2ccccc2F)S/C1=C\c1ccc(C(=O)O)cc1 )
8

API: value(readout= Population Apoptotic (%), system= HEK-293T, query= S=C(NCCCc1c[nH]cn1)NCCCN(Cc1ccc(Cl)c(Cl)c1)c1ccc(Br)cn1 )
19

API: value(readout= Population Apoptotic (%), system= HEK-293T, query= Cc1cn(-c2cc(NC(=O)c3ccc(C)c(Nc4nccc(-c5cccnc5)n4)c3)cc(C(F)(F)F)c2)cn1 [NILOTINIB] )
21

API: value(readout= Population Apoptotic (%), system= HEK-293T, query= CCn1c(=O)c(-c2ccc(-c3cncs3)cc2Cl)cc2cnc(Nc3ccc(N4CCN(C)CC4)cc3)nc21 )
10

API: value(readout= Population Apoptotic (%), system= HEK-293T, query= Cn1nc(C(F)(F)F)cc1-c1cnc(N2CCc3cc(S(=O)(=O)Nc4c(F)cc(Cl)cc4F)cc(N4CCCC4=O)c32)nc1 [TP-020] )
16

###

The entries below are paired with their reported Population Hoechst High Intensity Objects (%).
# Test system: HEK-293T
# ASSAY_NOTES: Multiplex assay against HEK293T
# Format: toxicity, cell-based
# CONDITION_DETAILS: human, 12 h, 1 µM, compound concentration 1 uM, replicate 1
Numbers only; they are read as %.

CCCS(=O)(=O)c1nc(NC2CC2)cc(-c2ccc3c(ccn3C3CC(C)(C)NC(C)(C)C3)c2)n1 :: 13
CCNc1cc(N[C@H]2CC[C@H](O)CC2)nc(Nc2ccc3c(ccn3Cc3ccccc3)c2)n1 :: 10
CCN1CCN(c2ccc(Nc3cc(N(C)C(=O)Nc4c(Cl)c(OC)cc(OC)c4Cl)ncn3)cc2)CC1 :: 19
CN1CCC(=C2c3ccccc3CC(=O)c3sccc32)CC1.O=C(O)/C=C/C(=O)O [KETOTIFEN FUMARATE] :: 13

API: value(readout= Population Hoechst High Intensity Objects (%), system= HEK-293T, query= O=C(Nc1cccnn1)N1CCC(=Cc2cccc(Oc3ccc(C(F)(F)F)cn3)c2)CC1 )
16

API: value(readout= Population Hoechst High Intensity Objects (%), system= HEK-293T, query= C=C1/C(=C\C=C2/CCC[C@]3(C)[C@@H]([C@H](C)/C=C/[C@H](C)C(C)C)CC[C@@H]23)C[C@@H](O)C[C@@H]1O )
23

API: value(readout= Population Hoechst High Intensity Objects (%), system= HEK-293T, query= O=C(Nc1ccc(-c2ccnc(Nc3ccc(N4CCOCC4)cc3)n2)cc1)[C@@H]1CCCN1 )
11

API: value(readout= Population Hoechst High Intensity Objects (%), system= HEK-293T, query= O=C(Nc1ccc(Cl)cc1)Nc1cccc(-c2cccc(N3CCCC3)n2)c1 )
12

API: value(readout= Population Hoechst High Intensity Objects (%), system= HEK-293T, query= COc1ccc(S(=O)(=O)N(CCO)c2ccccc2CN(C)C/C=C/c2ccc(Cl)cc2)cc1.O=P(O)(O)O )
16

API: value(readout= Population Hoechst High Intensity Objects (%), system= HEK-293T, query= CCn1c(=O)c(-c2ccc(-c3cncs3)cc2Cl)cc2cnc(Nc3ccc(N4CCN(C)CC4)cc3)nc21 )
14

API: value(readout= Population Hoechst High Intensity Objects (%), system= HEK-293T, query= CCCn1c(=O)c2[nH]c(-c3cnn(Cc4cccc(C(F)(F)F)c4)c3)nc2n(CC)c1=O )
18

API: value(readout= Population Hoechst High Intensity Objects (%), system= HEK-293T, query= Cn1nc(C(F)(F)F)cc1-c1cnc(N2CCc3cc(S(=O)(=O)Nc4c(F)cc(Cl)cc4F)cc(N4CCCC4=O)c32)nc1 )
10

API: value(readout= Population Hoechst High Intensity Objects (%), system= HEK-293T, query= CCn1cc(-c2ccnc3[nH]c(-c4cccc(CN(C)C)c4)cc23)c(-c2ccc(NC(=O)N(C)C)cc2)n1 )
11

###

# Tested on: Fibroblast
# ASSAY_NOTES: Multiplex assay against human fibroblast
# Type: toxicity, cell-based
# CONDITION_DETAILS: 48 h, 1 µM, compound concentration 1 uM, replicate 2
The entries below are paired with their reported Population Fragmented Nuclei (%).
Numbers only; they are read as %.

O=C(Nc1ccc(Cl)cc1)Nc1cccc(-c2cccc(N3CCCC3)n2)c1 :: 28
O=C1NC(=O)C(c2cnc3ccccn23)=C1c1cn2c3c(cc(F)cc13)CN(C(=O)N1CCCCC1)CC2 :: 55
CCOc1cc(C(=O)N2CCC(N3CCN(C)CC3)CC2)ccc1Nc1ncc2c(n1)N(C1CCCC1)c1ccccc1C(=O)N2C :: 29
Cc1ccc(C(=O)Nc2cccc(C(F)(F)F)c2)cc1Nc1nc(-c2cccnc2)nc2c1cnn2C :: 65
COc1cc(N2CCN(C)CC2)ccc1Nc1ncc2c(n1)N(C)c1ccccc1C(=O)N2C :: 25
CN1CCC(=C2c3ccccc3CC(=O)c3sccc32)CC1.O=C(O)/C=C/C(=O)O [KETOTIFEN FUMARATE] :: 28
CCCS(=O)(=O)c1nc(NC2CC2)cc(-c2ccc3c(ccn3C3CC(C)(C)NC(C)(C)C3)c2)n1 :: 46

GET /values?readout=Population Fragmented Nuclei (%)&item= S=C(NCCCc1c[nH]cn1)NCCCN(Cc1ccc(Cl)c(Cl)c1)c1ccc(Br)cn1
40

###

# System: Fibroblast
# ASSAY_NOTES: Multiplex assay against human fibroblast
# Type: toxicity, cell-based
# CONDITION_DETAILS: 12 h, 10 µM, compound concentration 10 uM, replicate 1
MEASUREMENT_KIND: Population Fragmented Nuclei (%)
Numbers only; they are read as %.

Examples with their reported Population Fragmented Nuclei (%) follow.
COc1cc2ncnc(Nc3ccc(F)c(Cl)c3)c2cc1NC(=O)/C=C/CN1CCCCC1 [DACOMITINIB ANHYDROUS] :: 30
C=CCn1c(=O)c2cnc(Nc3ccc(N4CCN(C)CC4)cc3)nc2n1-c1cccc(C(C)(C)O)n1 [ADAVOSERTIB] :: 29
CN1C2CCC1CC(OC(c1ccc(F)cc1)c1ccc(F)cc1)C2.Cl (configuration not stated) :: 31
CCc1cccc(CC)c1NC(=O)c1nn(C)c2c1CCc1cnc(Nc3ccc(C(=O)NC4CCN(C)CC4)cc3OC(F)(F)F)nc1-2 :: 24
COC(=N)c1nc2ccc3ncnc(Nc4ccc(OC)cc4F)c3c2s1 :: 20

GET /values?readout=Population Fragmented Nuclei (%)&item= CN1CCN(C(=O)C(C)(C)c2ccc(C(=O)Nc3cn4cc(-c5cc(C(C)(C)C)cc(C(C)(C)C)c5)ccc4n3)cc2)CC1 [T3-CLK-N]
39

GET /values?readout=Population Fragmented Nuclei (%)&item= CCOC(=O)c1c(C)[nH]c2ccc3c(c12)CN1CCc2cc(OC)ccc2C1O3 (configuration not stated)
18
